TESTED_SYSTEM: UniProt P12657
Sequence (P12657 whole entry): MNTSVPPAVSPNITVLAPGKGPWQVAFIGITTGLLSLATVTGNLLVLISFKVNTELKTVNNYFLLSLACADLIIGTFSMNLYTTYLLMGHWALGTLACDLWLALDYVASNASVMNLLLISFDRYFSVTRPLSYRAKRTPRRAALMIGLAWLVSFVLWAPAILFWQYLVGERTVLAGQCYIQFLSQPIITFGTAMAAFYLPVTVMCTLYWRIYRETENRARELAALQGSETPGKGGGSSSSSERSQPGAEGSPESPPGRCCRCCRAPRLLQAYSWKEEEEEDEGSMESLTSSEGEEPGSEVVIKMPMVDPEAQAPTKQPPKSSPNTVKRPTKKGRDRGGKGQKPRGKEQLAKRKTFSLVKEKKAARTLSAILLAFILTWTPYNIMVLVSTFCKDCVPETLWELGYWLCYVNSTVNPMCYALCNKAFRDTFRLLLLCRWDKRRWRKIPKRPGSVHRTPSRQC
MEASURED_PARAMETER: Ki

Determine from records and report Ki for `Cc1cc([C@@H]2CCCN2C)on1`
> 10 µM

----------
TESTED_SYSTEM: Gamma-aminobutyric acid type B receptor subunit 1 (Homo sapiens)
Sequence (Q9UBS5 whole entry): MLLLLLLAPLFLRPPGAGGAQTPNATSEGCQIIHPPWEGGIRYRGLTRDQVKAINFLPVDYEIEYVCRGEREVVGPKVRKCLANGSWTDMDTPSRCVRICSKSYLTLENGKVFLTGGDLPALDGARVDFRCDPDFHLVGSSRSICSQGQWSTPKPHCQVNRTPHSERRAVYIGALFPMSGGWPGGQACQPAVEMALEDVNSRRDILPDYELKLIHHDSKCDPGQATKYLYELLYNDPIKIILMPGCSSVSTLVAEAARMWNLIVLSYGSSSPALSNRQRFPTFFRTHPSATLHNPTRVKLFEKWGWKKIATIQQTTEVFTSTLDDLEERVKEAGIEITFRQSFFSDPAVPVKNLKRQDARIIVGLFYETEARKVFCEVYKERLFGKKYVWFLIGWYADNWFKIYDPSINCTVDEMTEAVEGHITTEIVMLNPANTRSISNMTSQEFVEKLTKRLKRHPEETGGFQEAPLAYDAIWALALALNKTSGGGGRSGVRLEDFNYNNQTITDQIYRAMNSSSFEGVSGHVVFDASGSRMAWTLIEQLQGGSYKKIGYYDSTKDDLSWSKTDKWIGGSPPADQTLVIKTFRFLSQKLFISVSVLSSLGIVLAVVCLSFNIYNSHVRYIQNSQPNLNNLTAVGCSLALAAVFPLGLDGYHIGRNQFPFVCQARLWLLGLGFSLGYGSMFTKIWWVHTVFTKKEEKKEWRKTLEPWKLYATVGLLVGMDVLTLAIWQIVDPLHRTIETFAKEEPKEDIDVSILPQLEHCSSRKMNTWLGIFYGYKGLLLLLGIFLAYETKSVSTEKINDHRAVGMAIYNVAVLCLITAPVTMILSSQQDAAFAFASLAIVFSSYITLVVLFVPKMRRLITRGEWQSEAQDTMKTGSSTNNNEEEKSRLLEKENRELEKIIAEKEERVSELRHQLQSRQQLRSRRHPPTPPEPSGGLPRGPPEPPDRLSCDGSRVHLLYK
pKi: −log10 of the molar value.
MEASURED_PARAMETER: pKi

Write down measured pKi (Gamma-aminobutyric acid type B receptor subunit 1 (Homo sapiens)) for this molecule. `Cc1cc([C@@H]2CCCN2C)on1`
< 5.00

----------
TESTED_SYSTEM: D(1A) dopamine receptor (Homo sapiens, UniProt P21728)
Sequence (P21728 whole entry): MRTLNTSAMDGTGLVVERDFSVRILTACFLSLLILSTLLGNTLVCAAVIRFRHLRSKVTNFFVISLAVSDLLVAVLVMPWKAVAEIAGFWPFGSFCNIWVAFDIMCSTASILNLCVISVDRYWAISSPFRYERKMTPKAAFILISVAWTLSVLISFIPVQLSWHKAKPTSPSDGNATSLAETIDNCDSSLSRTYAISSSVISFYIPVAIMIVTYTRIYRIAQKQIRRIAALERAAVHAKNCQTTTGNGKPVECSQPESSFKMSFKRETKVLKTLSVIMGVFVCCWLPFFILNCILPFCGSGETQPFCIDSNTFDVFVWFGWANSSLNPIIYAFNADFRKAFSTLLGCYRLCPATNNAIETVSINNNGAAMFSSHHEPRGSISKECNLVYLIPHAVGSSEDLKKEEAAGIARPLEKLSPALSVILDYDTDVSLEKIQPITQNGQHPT
MEASURED_PARAMETER: Ki

Complete the entry with Ki for `Cc1cc([C@@H]2CCCN2C)on1`
> 10 µM
